Experiment: Steady-state plasma pharmacokinetics of LCZ696 analytes
Type: in vivo, human
Conditions: human, plasma, po, 200 mg
# Tmax annotations
Write the value in h as a bare number.

# example entries with known answers
1. C[C@H](C[C@@H](Cc1ccc(-c2ccccc2)cc1)NC(=O)CCC(=O)O)C(=O)O: 2
2. CCOC(=O)[C@H](C)C[C@@H](Cc1ccc(-c2ccccc2)cc1)NC(=O)CCC(=O)O: 0.5

We now examine a further compound.
Need Tmax of CCCCC(=O)N(Cc1ccc(-c2ccccc2-c2nnn[nH]2)cc1)[C@H](C(=O)O)C(C)C [Valsartan, valsartan, reference compound] , thanks.
2

###

# AUC(0-t) annotations
Experiment: Steady-state plasma pharmacokinetics of LCZ696 analytes
Assay type: in vivo, human
Conditions: human, plasma, po, 100 mg
Write the value in ng·h/mL as a bare number.

1. C[C@H](C[C@@H](Cc1ccc(-c2ccccc2)cc1)NC(=O)CCC(=O)O)C(=O)O: 82600
2. CCOC(=O)[C@H](C)C[C@@H](Cc1ccc(-c2ccccc2)cc1)NC(=O)CCC(=O)O: 1540

We now examine a further molecule.
Need AUC(0-t) of CCCCC(=O)N(Cc1ccc(-c2ccccc2-c2nnn[nH]2)cc1)[C@H](C(=O)O)C(C)C [Valsartan, valsartan, reference compound] , thanks.
25900

###

# Tmax annotations
Experiment: Steady-state plasma pharmacokinetics of LCZ696 analytes
Format: in vivo, human
Details: human, plasma, oral, 200 mg

1. CCOC(=O)[C@H](C)C[C@@H](Cc1ccc(-c2ccccc2)cc1)NC(=O)CCC(=O)O [Sacubitril, sacubitril]: ≤ 0.5 h
2. C[C@H](C[C@@H](Cc1ccc(-c2ccccc2)cc1)NC(=O)CCC(=O)O)C(=O)O [LBQ657]: ≤ 2.5 h

Need Tmax of CCCCC(=O)N(Cc1ccc(-c2ccccc2-c2nnn[nH]2)cc1)[C@H](C(=O)O)C(C)C [Valsartan, valsartan, reference compound] , thanks.
≤ 2 h

###

# AUC(0-t) annotations
Assay: Steady-state plasma pharmacokinetics of LCZ696 analytes
Format: in vivo, human
Conditions: human, plasma, po, 200 mg
Write the value in ng·h/mL as a bare number.

# example entries with known answers
1) CCOC(=O)[C@H](C)C[C@@H](Cc1ccc(-c2ccccc2)cc1)NC(=O)CCC(=O)O [Sacubitril, sacubitril]: 3150
2) C[C@H](C[C@@H](Cc1ccc(-c2ccccc2)cc1)NC(=O)CCC(=O)O)C(=O)O [LBQ657]: 147000

Need AUC(0-t) of CCCCC(=O)N(Cc1ccc(-c2ccccc2-c2nnn[nH]2)cc1)[C@H](C(=O)O)C(C)C [Valsartan, valsartan, reference compound] , thanks.
38800

###

# Tmax annotations
Assay: Steady-state plasma pharmacokinetics of LCZ696 analytes
Assay type: in vivo, human
Conditions: human, plasma, po, 100 mg
Write the value in h as a bare number.

1) CCOC(=O)[C@H](C)C[C@@H](Cc1ccc(-c2ccccc2)cc1)NC(=O)CCC(=O)O: 0.5
2) CCCCC(=O)N(Cc1ccc(-c2ccccc2-c2nnn[nH]2)cc1)[C@H](C(=O)O)C(C)C [Valsartan, valsartan, reference compound]: 2

We now examine a further compound.
Need Tmax of C[C@H](C[C@@H](Cc1ccc(-c2ccccc2)cc1)NC(=O)CCC(=O)O)C(=O)O , thanks.
2.5
